Test system: acute HIV infection of T-lymphoid cells
Assay: Assay for inhibition of HIV replication (spread assay)
Format: cell-based, HIV-1
Conditions: Human immunodeficiency virus 1, T-lymphoid; read-out: Spread - IC95
Counter-ions that a name gives are not always drawn.
RECORDED_ENDPOINT: IC95 (nM)
Respond numerically; units are nM and should not be typed.

Study these solved cases before continuing.
COMPOUND: COC(=O)N[C@@H](Cc1ccccc1Cl)C(=O)N[C@H](CCC[C@@H](CO)N(CCC(C)C)S(=O)(=O)c1ccc2ncsc2c1)C1CC1
IC95, nM: 195
//
COMPOUND: CCN([C@H](CO)CCC[C@@H](NC(=O)[C@@H](NC(=O)OC)C(c1ccccc1)c1ccccc1)C(F)(F)F)S(=O)(=O)c1ccc(N)cc1
IC95, nM: 29
//
COMPOUND: CN[C@H](C(=O)NC(C)(C)CCC[C@@H](CO)N(C(C)C)S(=O)(=O)c1ccc(N)cc1)C(c1ccccc1)c1ccccc1 [Example L9, hydrochloride]
IC95, nM: 26
//
COMPOUND: Cc1ccc(S(=O)(=O)N(CCC(C)C)[C@H](CO)CC(C)CCNC(=O)[C@@H](N)C(c2ccccc2)c2ccccc2)cc1 (stereo partly drawn)
IC95, nM: 500

Input line: If you can, please state the reported IC95 value of COC(=O)N[C@@H](Cc1ccccc1Br)C(=O)N[C@@H](C)CCC[C@@H](CO)N(C(C)C)S(=O)(=O)c1ccc(CO)cc1 .
Output line: 71

Input line: Which IC95 value belongs to COC(=O)N[C@H](C(=O)NCCCC[C@@H](CN)N(CCC(C)C)S(=O)(=O)c1ccc(N)cc1)C(c1ccccc1)c1ccccc1 ?
Output line: 252

Input line: Which IC95 value is on record for COC(=O)N[C@H](C(=O)N[C@@H](C)CCC[C@@H](CO)N(CC(C)C)S(=O)(=O)c1ccc(N)cc1)C(c1ccccc1)c1ccccc1 ?
Output line: 8

Input line: Item COC(=O)N[C@H](C(=O)N[C@H](CCC[C@@H](CO)N(CCC(C)C)S(=O)(=O)c1ccc(N)c(F)c1)C1CC1)C(c1ccccc1)c1ccccc1 has what recorded IC95?
Output line: 11

###

Biological target: wild-type HIV-1 protease (Human immunodeficiency virus type 1 group M subtype B, UniProt P04585)
Experiment: Assay for inhibition of microbial expressed HIV protease
Type: biochemical
Structures can show the parent of a compound that is named as a salt.
Mark T for IC50 under 0.1 nM, F if at or over.

Observe how each entry below is paired with its result.
COMPOUND: CC(C)CCN([C@H](CO)CCC[C@@H](NC(=O)[C@@H](N)C(c1ccc(F)cc1)c1ccc(F)cc1)C1CC1)S(=O)(=O)c1ccc(CO)cc1 [Example J17, hydrochloride]
GROUP_LABEL: T
//
COMPOUND: COC(=O)N[C@@H](Cc1cccc(Cl)c1Cl)C(=O)N[C@@H](C)CCC[C@@H](CO)N(C(C)C)S(=O)(=O)c1ccc(N)cc1 [Example F16]
GROUP_LABEL: F
//
COMPOUND: COC(=O)N[C@H](C(=O)N[C@H](CCC[C@@H](CO)N(CCC(C)C)S(=O)(=O)c1ccc(N)cc1)C1CC1)C(c1ccccc1)c1ccccc1 [Example E1]
GROUP_LABEL: T
//
COMPOUND: COC(=O)N[C@H](C(=O)N[C@H](CCC[C@@H](CO)N(CCC(C)C)S(=O)(=O)c1ccc(N)cc1)C(F)(F)F)C(c1ccccc1)c1ccccc1 [Example H2]
GROUP_LABEL: T

Input line: Strictly below 0.1 nM: is that where IC50 of CC[C@@H](CCC[C@@H](CO)N(CC(C)C)S(=O)(=O)c1ccc(CO)cc1)NC(=O)[C@@H](N)C(c1ccccc1)c1ccccc1 [Example J32, hydrochloride] sits?
Output line: T

Input line: is_below(IC50, 0.1 nM) for CC[C@@H](CCC[C@@H](CO)N(C(C)C)S(=O)(=O)c1ccc(CO)cc1)NC(=O)[C@@H](NC)C(c1ccccc1)c1ccccc1 [Example J35, hydrochloride] ?
Output line: F

Input line: Lab note: IC50 threshold 0.1 nM. Does this compound come in strictly under it? CC[C@@H](CCC[C@@H](CO)N(CCC(C)C)S(=O)(=O)c1ccc(CO)cc1)NC(=O)[C@@H](N)C(c1ccccc1)c1ccccc1 [Example J31, hydrochloride]
Output line: T

Input line: Strictly below 0.1 nM in IC50? CCN([C@H](CO)CCC[C@@H](NC(=O)[C@@H](NC(=O)OC)C(c1ccccc1)c1ccccc1)C(F)(F)F)S(=O)(=O)c1ccc(N)cc1 [Example H4]
Output line: F

Input line: Hi there! Is IC50 for COC(=O)N[C@H](C(=O)N[C@H](CCC[C@@H](CO)N(CC(C)C)S(=O)(=O)c1ccc(N)cc1)C(F)(F)F)C(c1ccccc1)c1ccccc1 [Example H5] below 0.1 nM, do you know?
Output line: T

Input line: Bench note: check whether COC(=O)N[C@H](C(=O)N[C@H](CCC[C@@H](CO)N(C)S(=O)(=O)c1ccc(N)cc1)C(F)(F)F)C(c1ccccc1)c1ccccc1 [Example H6] shows IC50 below 0.1 nM
Output line: F
